Measurement Target: hERG (human ether-a-go-go related gene potassium channel, KCNH2) (Homo sapiens, UniProt Q12809)
Construct: expressed in transfected cells; host or cells: HEK293
Sequence (Q12809 whole entry): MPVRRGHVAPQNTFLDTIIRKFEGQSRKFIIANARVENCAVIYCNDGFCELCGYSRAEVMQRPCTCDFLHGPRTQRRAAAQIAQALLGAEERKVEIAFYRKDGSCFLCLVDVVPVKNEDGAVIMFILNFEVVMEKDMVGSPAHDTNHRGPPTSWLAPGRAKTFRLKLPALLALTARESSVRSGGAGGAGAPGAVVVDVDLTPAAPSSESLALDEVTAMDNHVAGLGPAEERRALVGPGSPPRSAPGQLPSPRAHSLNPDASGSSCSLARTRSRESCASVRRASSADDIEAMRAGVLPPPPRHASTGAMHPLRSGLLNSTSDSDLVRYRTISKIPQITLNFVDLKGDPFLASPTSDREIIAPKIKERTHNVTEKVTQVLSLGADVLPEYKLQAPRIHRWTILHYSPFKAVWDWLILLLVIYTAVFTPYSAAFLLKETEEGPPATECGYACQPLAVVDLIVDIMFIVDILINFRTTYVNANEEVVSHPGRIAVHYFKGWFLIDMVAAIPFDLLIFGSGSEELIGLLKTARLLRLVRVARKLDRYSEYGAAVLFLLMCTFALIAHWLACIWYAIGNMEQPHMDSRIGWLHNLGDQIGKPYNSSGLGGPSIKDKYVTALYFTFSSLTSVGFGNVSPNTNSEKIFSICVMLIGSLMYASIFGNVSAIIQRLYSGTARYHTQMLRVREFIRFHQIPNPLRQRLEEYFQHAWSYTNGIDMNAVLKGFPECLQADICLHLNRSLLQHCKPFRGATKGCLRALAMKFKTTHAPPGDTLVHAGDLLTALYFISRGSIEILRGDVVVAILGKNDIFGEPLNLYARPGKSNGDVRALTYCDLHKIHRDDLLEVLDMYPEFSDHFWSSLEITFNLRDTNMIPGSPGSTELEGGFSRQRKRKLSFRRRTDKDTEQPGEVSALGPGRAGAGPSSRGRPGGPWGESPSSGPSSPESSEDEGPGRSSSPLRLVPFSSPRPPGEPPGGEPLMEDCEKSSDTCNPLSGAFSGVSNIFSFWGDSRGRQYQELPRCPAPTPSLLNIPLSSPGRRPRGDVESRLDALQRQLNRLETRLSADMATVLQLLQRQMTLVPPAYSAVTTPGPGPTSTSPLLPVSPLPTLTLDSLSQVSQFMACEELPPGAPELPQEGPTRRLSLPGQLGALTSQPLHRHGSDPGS
Measurement Protocol: hERG channel whole-cell patch clamp (Ion Channel Activity Measurement)
Format: cell-based
Condition Description: human, HEK293 cells expressing the human ERG potassium channel, pH 7.4, 1 μM test article, room temperature
Structures can show the parent of a compound that is named as a salt.
List of inhibition at 1 μM values.
Measured Attribute: inhibition at 1 μM

[[record]]
molecule = "Oc1cccc2c1C(c1c(O)ccc3ccccc13)CC2 (centres unmarked) [Compound A079]"
value_reported = "< 25%"

[[record]]
molecule = "Oc1cccc(-c2cccnc2)c1Cc1c(O)cccc1-c1cccnc1 [Compound A117]"
value_reported = "< 25%"

[[record]]
molecule = "O=C(c1c(O)ccc2ccccc12)c1c(OCCN2CCCC2)ccc2ccccc12 [Compound A234]"
value_reported = "75 to 100%"

[[record]]
molecule = "CCN(CC)CCCOc1ccc2ccccc2c1Cc1c(O)ccc2ccccc12 [Compound A135]"
value_reported = "75 to 100%"

[[record]]
molecule = "Nc1ccc2ccccc2c1Cc1c(O)ccc2ccccc12 [Compound A021]"
value_reported = "< 25%"

[[record]]
molecule = "CCN(CC)CCOc1ccc2ccccc2c1Sc1c(OC)ccc2ccccc12 [Compound A152]"
value_reported = "75 to 100%"

[[record]]
molecule = "O=C(O)c1ccc2c(Cc3c(O)ccc4ccccc34)c(O)ccc2c1 [Compound A114]"
value_reported = "< 25%"

[[record]]
molecule = "CS(=O)(=O)Nc1cc(Cc2c(NS(C)(=O)=O)ccc3ccccc23)c2ccccc2c1 [Compound A024-2]"
value_reported = "< 25%"

[[record]]
molecule = "CCN(CC)CC(=O)Nc1ccc2ccccc2c1Cc1c(OC)ccc2ccccc12 [Compound A284]"
value_reported = "25 to 50%"

[[record]]
molecule = "Cc1cc2ccccc2c(Cc2c(O)c(C)cc3ccccc23)c1O [Compound A032]"
value_reported = "< 25%"

[[record]]
molecule = "Oc1ccc2ccccc2c1Cc1c(O)ccc2ccccc12 [Compound A001, 1,1′-methylenebis(naphthalen-2-ol)]"
value_reported = "< 25%"

[[record]]
molecule = "COc1ccc2ccccc2c1Cc1c(OCCN(CCO)CCO)ccc2ccccc12 [Compound A195]"
value_reported = "75 to 100%"

[[record]]
molecule = "COc1ccc2ccccc2c1Cc1c(OCC[N+]2(C)CCOCC2)ccc2ccccc12 [Compound A130-2, formate]"
value_reported = "75 to 100%"

[[record]]
molecule = "CC(C)(O)c1cc2ccccc2c(Cc2c(O)c(C(C)(C)O)cc3ccccc23)c1O [Compound A047]"
value_reported = "< 25%"

[[record]]
molecule = "Cc1cc2ccccc2c(O)c1Cc1c(C)cc2ccccc2c1O [Compound A035]"
value_reported = "< 25%"

[[record]]
molecule = "O=C(c1c(O)ccc2ccccc12)c1c(O)ccc2ccccc12 [Compound A007, bis(2-hydroxynaphthalen-1-yl)methanone]"
value_reported = "< 25%"

[[record]]
molecule = "Oc1ccc2c(c1Cc1c(O)ccc3c1CNCC3)CCCC2 [Compound A141-I-1]"
value_reported = "< 25%"


Source listed as patent US12187681B2.
